# Lookup of reported inhibition at 1 µM keyed by entry
measured.on: RORγt (Homo sapiens)
protocol.description: Cofactor recruitment test (Alpha Screen, biotinylated SRC-1 peptide)
Assay type: biochemical
setup.conditions: read-out: Signal value inhibitory rate at test compound 1 μM (%)
A number alone suffices; assume %.

{"columns": ["test.smiles", "inhibition at 1 µM, %"],
 "data": [
  ["CCOCC(C)(C)c1c(F)cc(NC(=O)[C@H]2c3ccc(OC)cc3CCN2C(=O)c2cc(O)no2)cc1F", 82]
]}

Check the records and state inhibition at 1 µM for CCOc1ccc2c(c1)CCN(C(=O)[C@H](O)CCC(=O)O)[C@H]2C(=O)Nc1cc(F)c([Si](C)(C)C)c(F)c1 87

---

# Lookup of reported inhibition at 1 µM keyed by entry
measured.on: RORγt (Homo sapiens)
Sequence (P51449 1-497 isoform P51449-2): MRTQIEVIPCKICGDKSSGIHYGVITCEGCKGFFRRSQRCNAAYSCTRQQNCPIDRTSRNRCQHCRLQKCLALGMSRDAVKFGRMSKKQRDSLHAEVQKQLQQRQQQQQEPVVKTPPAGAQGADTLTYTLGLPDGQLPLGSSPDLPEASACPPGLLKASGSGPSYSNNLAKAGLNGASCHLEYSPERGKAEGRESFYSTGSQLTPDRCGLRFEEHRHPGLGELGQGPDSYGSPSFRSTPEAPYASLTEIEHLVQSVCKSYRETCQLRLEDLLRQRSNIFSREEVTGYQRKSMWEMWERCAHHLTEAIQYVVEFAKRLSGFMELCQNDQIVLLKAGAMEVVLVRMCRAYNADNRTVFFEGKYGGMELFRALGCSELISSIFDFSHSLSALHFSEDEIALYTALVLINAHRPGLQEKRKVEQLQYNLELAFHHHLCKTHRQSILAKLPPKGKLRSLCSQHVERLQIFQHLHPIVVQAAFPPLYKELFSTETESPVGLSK
protocol.description: RORγt binding test using fluorescent-labeled cholesterol (TR-FRET)
setup.conditions: read-out: Binding inhibitory rate of fluorescent-labeled cholesterol to RORγt at test compound 1 μM (%)
A number alone suffices; assume %.

{"columns": ["test.smiles", "result.type", "data.value"],
 "data": [
  ["COCc1ccc2c(c1)CCN(C(=O)CCCC(=O)O)[C@H]2C(=O)Nc1cc(F)c(C(C)(C)C)c(F)c1", "inhibition at 1 µM", 101],
  ["CCOc1ccc2c(c1)CCN(C(=O)c1cc(O)no1)[C@H]2C(=O)Nc1cc(F)c(C(C)(C)COC)c(F)c1", "inhibition at 1 µM", 100],
  ["COCc1ccc2c(c1)CCN(C(=O)c1cc(O)no1)[C@H]2C(=O)Nc1ccc([Si](C)(C)C)c(F)c1", "inhibition at 1 µM", 103],
  ["COc1ccc2c(c1)CCN(C(=O)c1ccc(=O)[nH]c1)[C@H]2C(=O)Nc1ccc([Si](C)(C)C)c(F)c1", "inhibition at 1 µM", 102]
]}

Next:
Find inhibition at 1 µM for CCOCC(C)(C)c1c(F)cc(NC(=O)[C@H]2c3ccc(OCC)cc3CCN2C(=O)c2cc(O)no2)cc1F on RORγt (Homo sapiens) and write it down. 101

---

# Lookup of reported inhibition at 1 µM keyed by entry
measured.on: RORγt (Homo sapiens, UniProt P51449)
protocol.description: RORγt binding test using fluorescent-labeled synthetic ligand (TR-FRET)
setup.conditions: read-out: Binding inhibitory rate of fluorescent-labeled synthetic ligand to RORγt at test compound 1 μM (%)
A number alone suffices; assume %.

Please review the following examples before continuing.
{"columns": ["test.smiles", "measured.on", "data.value"],
 "data": [
  ["CCOc1ccc2c(n1)CCN(C(=O)CCCC(=O)O)[C@H]2C(=O)Nc1cc(F)c([Si](C)(C)C)c(F)c1", "RORγt (Homo sapiens, UniProt P51449)", 101],
  ["COCc1ccc2c(c1)CCN(C(=O)CCCC(=O)O)[C@H]2C(=O)Nc1cc(F)c(C(C)(C)C)c(F)c1", "RORγt (Homo sapiens, UniProt P51449)", 101],
  ["CCOc1ccc2c(c1)CCN(C(=O)CCCC(=O)O)[C@H]2C(=O)Nc1cc(F)c2c(c1)CCC2(C)C", "RORγt (Homo sapiens, UniProt P51449)", 101],
  ["CCOc1ccc2c(c1)CCN(C(=O)c1cc(O)no1)[C@H]2C(=O)Nc1cc(F)c(C(C)(C)COC)c(F)c1", "RORγt (Homo sapiens, UniProt P51449)", 102],
  ["CCOc1ccc2c(c1)CCN(C(=O)CCCC(=O)O)[C@H]2C(=O)Nc1cc(F)c([Si](C)(C)C)c(F)c1", "RORγt (Homo sapiens, UniProt P51449)", 101]
]}

Find inhibition at 1 µM for COc1ccc2c(c1)CCN(C(=O)CC#N)[C@H]2C(=O)Nc1cc(F)c(C(C)(C)C(=O)N2CCCC2)c(F)c1 on RORγt (Homo sapiens, UniProt P51449) and write it down. 101

Find inhibition at 1 µM for COc1ccc2c(c1)CCN(C(=O)N1CC(CC(=O)O)C1)[C@H]2C(=O)Nc1cc(F)c([Si](C)(C)C)c(F)c1 on RORγt (Homo sapiens, UniProt P51449) and write it down. 102
